Entry source: patent US5612341A

# System: H9 T cell line
# TEST_METHOD_NOTES: Toxicity to uninfected H9 cells (cell count)
# Format: cell-based
# RECORDED_CONDITIONS: T-cell, Table IA; concentration that causes a 50% reduction in total cell number; read-out: IC50
OBSERVATION_TYPE: IC50

For each of the compounds below, state IC50.
1. COC(=O)c1c2c(c(OC)c(Br)c1-c1c(Br)c(OC)c3c(c1C(=O)OC)OCO3)OCO2 [Compound 110]
2. COC(=O)c1c(Br)c(OC)c2c(c1-c1c3c(c(OC)c(Br)c1C(=O)OC)OCO3)OCO2 [Compound 5]
3. COC(=O)c1cc2c(c(OC)c1-c1c(C(=O)OC)cc3c(c1OC)OCO3)OCO2 [Compound 114]
4. COC(=O)c1c(Br)c2c(c(OC)c1-c1c(OC)c3c(c(Br)c1C(=O)OC)OCO3)OCO2 [Compound 118]
5. COC(=O)c1c(-c2cc(OC)c3c(c2C(=O)OC)OCO3)cc(OC)c2c1OCO2 [Compound 116]

1: 45 µg/mL; 2: > 100 µg/mL; 3: > 100 µg/mL; 4: > 100 µg/mL; 5: > 100 µg/mL

* * *

Task for the reader: assign each of the following compounds its reported pIC50.
# SYSTEM_TESTED: HIV-1 reverse transcriptase (Human immunodeficiency virus type 1 group M subtype B, UniProt P04585)
# TEST_METHOD_NOTES: HIV-1 reverse transcriptase, DNA-dependent DNA polymerase associated activity
# Format: biochemical
# Parameters: HIV-1 reverse transcriptase was purified; made in house; host or cells: Escherichia coli JM 109 containing pKRT 2 (plasmid provided by W. C. Summers, Yale University)
# RECORDED_CONDITIONS: Poly(dA)-olig(dT) as template primer
One number for each entry, as −log10 of the molar value.

                                   compound  observation_type  assay_value
0  COC(=O)c1c(Br)c(OC)c2c(c1-c1c3c(c(OC)c(Br)c1C(=O)OC)OCO3)OCO2 [Compound 5]             pIC50         7.32

What measured pIC50 goes with COC(=O)c1cc(OC)c2c(c1-c1c3c(c(OC)c(Br)c1C(=O)OC)OCO3)OCO2 [Compound 4] ? 7.25

* * *

Consider the following molecules; for each one, report its IC50.
# Tested on: H9 T cell line
# TEST_METHOD_NOTES: Toxicity to uninfected H9 cells (cell count)
# Format: cell-based
# RECORDED_CONDITIONS: T-cell, Table IA; concentration that causes a 50% reduction in total cell number; read-out: IC50

>>> df
                                   molecule  observation_type  assay_value
0  COC(=O)c1cc(-c2cc(C(=O)OC)c3c(c2OC)OCO3)c(OC)c2c1OCO2 [Compound 117]              IC50     1.8 mg/L
1  COC(=O)c1cc2c(c(OC)c1-c1c(C(=O)OC)cc(OC)c3c1OCO3)OCO2 [Compound 115]              IC50   > 100 mg/L

Kindly review the next molecule as well.
Value wanted: IC50 (H9 T cell line) of entry COC(=O)c1c(Br)c2c(c(OC)c1-c1c3c(c(OC)c(Br)c1C(=O)OC)OCO3)OCO2 [Compound 119] > 100 mg/L
